assay: promoters of myeloid differentiation in arrested cells, primary screen, cell-based, GFP/MAC1 double positive, flow cytometry, validation set (AID 588685); settings: ER-HoxA9 marrow cells, hits give high values, normalized: vehicle 0, fulvestrant 100;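 further: compound exposure lasts four days before antibody staining and flow analysis; 0% = DMSO wells and 100% = 5 µM fulvestrant positive control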
quantity_measured: differentiation response (%)
Respond with the bare value in %.

### Prompt Tell me measured differentiation response for CCn1c(=N)c(C(=O)NC)cc2c(=O)n3cccc(C)c3nc21 please.
### Response 24.7

### Prompt Given Cc1ccc(C(=O)N2CC3(C(C)C)CN(C(=O)c4ccc(C)cc4)CC(C(C)C)(C2)C3=O)cc1 , respond with its differentiation response.
### Response 7.2

### Prompt Annotate the compound CC[C@H](CO)NCCN[C@H](CC)CO with its measured differentiation response.
### Response -19.6

### Prompt Answer with reported differentiation response of O=C(O)CCn1c(=S)n(CCC(=O)O)c2ccccc21
### Response -6.66

### Prompt Return differentiation response (reported value) for this compound: COc1ccc2oc(=O)c(-c3nc(C)cs3)cc2c1
### Response -1.82

### Prompt Please look at this compound and report its differentiation response: CC1(C)CC(=O)c2cc(O)ccc2O1
### Response -13.1

### Prompt Give differentiation response for C=CCNC(=S)N1CCc2c([nH]c3ccccc23)C1C (centres undefined)
### Response -11.9

### Prompt State, in one line, measured differentiation response of O=C(/C=C/c1ccc(Cl)cc1)NCCc1ccccc1
### Response -5.05

### Prompt Output differentiation response of CCOC(=O)c1ccc(N2C(=O)C(CC(N)=O)N(CCc3ccc(OC)c(OC)c3)C2=S)cc1 (centres undefined)
### Response -21.2

### Prompt Given Cc1oc2cc(O)ccc2c(=O)c1Oc1ccccc1Br , respond with its differentiation response.
### Response -13.1

### Prompt Given CC(NC(=O)c1ccc(OC2CCN(Cc3ccccn3)CC2)cc1)c1ccccc1 (centres undefined) , respond with its differentiation response.
### Response 0

### Prompt Read the entry C=C(C)COc1ccc(-c2n[nH]c(C)c2-c2ccc(OC)cc2)c(O)c1 and write its reported differentiation response.
### Response -9.89

### Prompt Please report the measured differentiation response for COc1cc2ccc(=O)oc2c(O)c1OCC=C(C)C
### Response 7.09

### Prompt Give differentiation response for O=C(COc1ccccc1)N1CCN(c2ccccc2)CC1
### Response 9.49

### Prompt Supply measured differentiation response of COc1c2occc2c(OC)c2c(=O)cc(C(F)(F)C(F)(F)F)oc12 in your reply.
### Response -16.4

### Prompt Please report differentiation response for the following compound: CC(CCc1ccccc1)NCC(O)c1ccc(O)c(C(N)=O)c1 (centres undefined)
### Response -6.66

### Prompt Respond only with differentiation response recorded for Cc1nc(C)c(C)nc1C
### Response 3.03

### Prompt Give differentiation response for the following compound: CC(O)Cn1cnc2c1c(=O)n(C)c(=O)n2C (centres undefined)
### Response -14.7

### Prompt Write down differentiation response measured for item CC(=O)N(CCC1(C(C)C)CCOC(C)(C)C1)Cc1ccco1 (centres undefined)
### Response 12.3

### Prompt Please look at this compound and report its differentiation response: CC(C)NC(=O)c1ccc(C(C)C)cc1
### Response 2.4

### Prompt Identify measured differentiation response corresponding to OC[C@@H](O)[C@@H](O[C@H]1O[C@H](CO)[C@@H](O)[C@H](O)[C@H]1O)[C@H](O)[C@@H](O)CO
### Response 20.8

### Prompt Identify the reported differentiation response for the following entry. COc1ccc(-c2c(NC(=O)c3ccco3)n(C)c3ccccc3c2=O)cc1
### Response -7.5

### Prompt Identify measured differentiation response associated with CCOC(=O)c1ccccc1NC(=O)c1ccc(F)cc1
### Response -13.1

### Prompt # return recorded differentiation response for entry CN(C)CCCN1c2ccccc2CCc2ccc(Cl)cc21
### Response -10.4

Reference for the values: PubChem BioAssay
